These data points were gathered from PubChem BioAssay.

PROCEDURE TEXT: TOR pathway RTG branch CIT2 reporter changes – S. cerevisiae, GFP fusion, multiplex flow cytometry, primary screen (AID 1870);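 also: barcoded CIT2-GFP strain pooled with four other GFP strains with rapamycin as positive control; median GFP fluorescence per well over plate mean of DMSO wells so 100% = DMSO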
MEASUREMENT PARAMETERS: S. cerevisiae CIT2-GFP expression, 3 h, at 10 µM, hits give high values

# COMPOUND, percent response of DMSO control / %
rows = [
    ("CC(=O)N1CCN(c2ccc(NC(=O)/C=C/c3ccccc3)cc2)CC1", 105),
    ("C[C@]12CCC(=O)C=C1CC[C@@H]1[C@@H]2[C@@H](O)C[C@@]2(C)[C@H]1CC[C@]2(O)C(=O)COC(=O)CCC(=O)O", 110),
    ("COc1cc2c(cc1OC)-c1cc(NC3CCCCCC3)nc(=O)n1CC2", 109),
    ("O=C(c1cccc2ccccc12)C1CCCN(C(=O)CCN2CCCO2)C1 (stereo unspecified)", 109),
    ("COc1c2c(nc3occc13)C(CC=C(C)C)(OC)C(O)CC2 (stereo unspecified)", 110),
    ("Cc1ccc2c(c1)c1c3n2CCCN(Cc2ccccc2)C3CCC1 (stereo unspecified)", 105),
    ("CSCC[C@H](NC(=O)Nc1ccc(C)cc1C)C(=O)O", 99.6),
    ("O=C(CCCN1C(=O)/C(=C\\c2cccs2)SC1=S)Nc1ccccn1", 92.4),
    ("CCCCCCCC(=O)OCC(O)CO (stereo unspecified)", 97.8),
    ("O=C1C(=O)c2ccccc2C(O)=C1c1ccccc1F", 71.2),
    ("Cn1c(=S)n(C)c2ccccc21", 94.4),
]

====

PROCEDURE TEXT: rapamycin-like changes in RPL19A-GFP expression – cell-based, S. cerevisiae, multiplex flow cytometry, primary screen (AID 1862);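 also: lower values mimic rapamycin by blocking the RPL19A rise seen in DMSO cells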
MEASUREMENT PARAMETERS: S. cerevisiae RPL19A-GFP strain, flow cytometry fluorescence, 3 h; at 10 µM; hits give low values
Results filed as inconclusive are left out.

# MOLECULE, UNIT SPEC, percent of DMSO control GFP
rows = [
    ("CC1(C)CC(C(CC(=O)O)c2ccccc2)CCO1 (stereo unspecified)", "%", 97.6),
    ("C[C@]12C[C@H](O)[C@H]3[C@@H](CCC4=CC(=O)CC[C@@]43C)[C@@H]1CC[C@@H]2C(=O)CO", "%", 96.3),
    ("COCCCN1C(=O)/C(=C\\c2cccs2)C(C(=O)OC)=C1C", "%", 99.9),
    ("O=C(Cc1ccccc1[N+](=O)[O-])NCc1ccncc1", "%", 101),
    ("C=C(C)C(=O)Nc1ccc(NC(C)C)cc1", "%", 104),
    ("CCOc1ccc(C(=O)NC(C)C2COc3ccccc3O2)cc1 (stereo unspecified)", "%", 99.5),
    ("CCOC(=O)c1c(O)c2c([nH]c1=O)CCCC2", "%", 100),
    ("CCC(C(=O)Nc1ccc2c(c1)OCCO2)c1ccccc1 (stereo unspecified)", "%", 103),
    ("Cc1cn([C@H]2C=C[C@@H](CO)O2)c(=O)[nH]c1=O", "%", 101),
    ("CCCN(CCC)C(=O)C(CCC(=O)O)NC(=O)c1ccccc1 (stereo unspecified)", "%", 98.8),
    ("COCCOC(=O)C1=C(C)NC(C)=C(C(=O)OC(C)C)C1c1cccc([N+](=O)[O-])c1 (stereo unspecified)", "%", 102),
]
